molecules and their reported Bliss excess
Tested on: D-283MED (Other Solid Carcinomas)
Assay: Bliss excess, mean over the matrix (fraction); higher = more synergy
property.measured: Bliss excess

molecule="CC1(C)CCC(CN2CCN(c3ccc(C(=O)NS(=O)(=O)c4ccc(NCC5CCOCC5)c([N+](=O)[O-])c4)c(Oc4cnc5[nH]ccc5c4)c3)CC2)=C(c2ccc(Cl)cc2)C1 [Venetoclax] + Cn1cnc2c(F)c(Nc3ccc(Br)cc3Cl)c(C(=O)NOCCO)cc21 [Selumetinib] (first compound max 1 µM, 7x7, partner max 3 µM)" data_value=0.009
molecule="Cc1c2c(nn1C)CSCc1cc(n(C)n1)CSc1cc(c3ccccc3c1)OCCCc1c(C(=O)O)n(C)c3c-2c(Cl)ccc13 [AZD5991] + Cn1cnc2c(F)c(Nc3ccc(Br)cc3Cl)c(C(=O)NOCCO)cc21 [Selumetinib] (first compound max 1 µM, 7x7, partner max 3 µM)" data_value=-0.0265

###

molecules and their reported combination Emax
System: SNU-61 (Colorectal Carcinoma)
Test: combination Emax (second highest fraction inhibited in the dose matrix, 72 h); higher = more inhibition; extreme values may be limits of the assay
property.measured: combination Emax

molecule="COc1nnc2ccc(N3CCC(c4ccc(OCCN5CCN(C)C(=O)[C@H]5C)cc4)CC3)nn12 [AZD5153] + CC1(C)CCC(CN2CCN(c3ccc(C(=O)NS(=O)(=O)c4ccc(NCC5CCOCC5)c([N+](=O)[O-])c4)c(Oc4cnc5[nH]ccc5c4)c3)CC2)=C(c2ccc(Cl)cc2)C1 [Venetoclax] (first compound max 1 µM, 7x7, partner max 1 µM)" assayed_system="SNU-61 (Colorectal Carcinoma)" property_measured="combination Emax" data_value=0.389
molecule="CC(=O)Nc1cccc(-n2c(=O)n(C3CC3)c(=O)c3c(Nc4ccc(I)cc4F)n(C)c(=O)c(C)c32)c1 [Trametinib] + Cc1nc(-c2cn3c(n2)-c2ccc(-c4cnn(C(C)(C)C(N)=O)c4)cc2OCC3)n(C(C)C)n1 [Taselisib] (first compound max 1 µM, 7x7, partner max 10 µM)" assayed_system="SNU-61 (Colorectal Carcinoma)" property_measured="combination Emax" data_value=0.672
molecule="Cc1c2c(nn1C)CSCc1cc(n(C)n1)CSc1cc(c3ccccc3c1)OCCCc1c(C(=O)O)n(C)c3c-2c(Cl)ccc13 [AZD5991] + CC1(C)CCC(CN2CCN(c3ccc(C(=O)NS(=O)(=O)c4ccc(NCC5CCOCC5)c([N+](=O)[O-])c4)c(Oc4cnc5[nH]ccc5c4)c3)CC2)=C(c2ccc(Cl)cc2)C1 [Venetoclax] (first compound max 1 µM, 7x7, partner max 1 µM)" assayed_system="SNU-61 (Colorectal Carcinoma)" property_measured="combination Emax" data_value=0.155

###

Tested on: Saos-2 (Osteosarcoma)
Assay: combination Emax (second highest fraction inhibited in the dose matrix, 72 h); higher = more inhibition; extreme values may be limits of the assay
compounds and their reported combination Emax
property.measured: combination Emax

compound="COc1cccc(OCCCN)c1-c1cc(Nc2cnc(C#N)cn2)n[nH]1 [Prexasertib] + O=C(c1cc(Cc2n[nH]c(=O)c3ccccc23)ccc1F)N1CCN(C(=O)C2CC2)CC1 [Olaparib] (first compound max 1 µM, 7x7, partner max 10 µM)" data_value=0.806
compound="COc1cccc(OCCCN)c1-c1cc(Nc2cnc(C#N)cn2)n[nH]1 [Prexasertib] + CN(C)CCCOc1ccc(-c2ccc3ncc4c(c3c2)n(C2CCOCC2)c(=O)n4C)cn1 [AZD0156] (first compound max 1 µM, 7x7, partner max 1 µM)" data_value=0.644
compound="CC1(C)CCC(CN2CCN(c3ccc(C(=O)NS(=O)(=O)c4ccc(NCC5CCOCC5)c([N+](=O)[O-])c4)c(Oc4cnc5[nH]ccc5c4)c3)CC2)=C(c2ccc(Cl)cc2)C1 [Venetoclax] + COc1cc(Nc2ncc3c(n2)-c2ccc(Cl)cc2C(c2c(F)cccc2OC)=NC3)ccc1C(=O)O [Alisertib] (first compound max 1 µM, 7x7, partner max 10 µM)" data_value=0.682
compound="Cc1nc(Nc2ncc(C(=O)Nc3c(C)cccc3Cl)s2)cc(N2CCN(CCO)CC2)n1 [Dasatinib] + CC(=O)Nc1cccc(-n2c(=O)n(C3CC3)c(=O)c3c(Nc4ccc(I)cc4F)n(C)c(=O)c(C)c32)c1 [Trametinib] (first compound max 2 µM, 7x7, partner max 1 µM)" data_value=0.335

###

Tested on: H4 (Low Grade Glioma)
Assay: Bliss excess, mean over the matrix (fraction); higher = more synergy
molecules and their reported Bliss excess
property.measured: Bliss excess

molecule="COc1nnc2ccc(N3CCC(c4ccc(OCCN5CCN(C)C(=O)[C@H]5C)cc4)CC3)nn12 [AZD5153] + C=CCn1c(=O)c2cnc(Nc3ccc(N4CCN(C)CC4)cc3)nc2n1-c1cccc(C(C)(C)O)n1 [AZD1775] (first compound max 1 µM, partner max 1 µM)" data_value=-0.0056
molecule="CC(=O)Nc1cccc(-n2c(=O)n(C3CC3)c(=O)c3c(Nc4ccc(I)cc4F)n(C)c(=O)c(C)c32)c1 [Trametinib] + Cc1nc(-c2cn3c(n2)-c2ccc(-c4cnn(C(C)(C)C(N)=O)c4)cc2OCC3)n(C(C)C)n1 [Taselisib] (first compound max 1 µM, 7x7, partner max 10 µM)" data_value=0.132
molecule="Cc1c2c(nn1C)CSCc1cc(n(C)n1)CSc1cc(c3ccccc3c1)OCCCc1c(C(=O)O)n(C)c3c-2c(Cl)ccc13 [AZD5991] + C1CN(CCC1(C(=O)N[C@@H](CCO)C2=CC=C(C=C2)Cl)N)C3=NC=NC4=C3C=CN4 [Capivasertib] (first compound max 1 µM, 7x7, partner max 3 µM)" data_value=0.0378
molecule="COc1nnc2ccc(N3CCC(c4ccc(OCCN5CCN(C)C(=O)[C@H]5C)cc4)CC3)nn12 [AZD5153] + CCN(CCO)CCCOc1ccc2c(Nc3cc(CC(=O)Nc4cccc(F)c4)[nH]n3)ncnc2c1 [AZD2811] (first compound max 1 µM, 7x7, partner max 1 µM)" data_value=-0.0269
molecule="CC1(C)CCC(CN2CCN(c3ccc(C(=O)NS(=O)(=O)c4ccc(NCC5CCOCC5)c([N+](=O)[O-])c4)c(Oc4cnc5[nH]ccc5c4)c3)CC2)=C(c2ccc(Cl)cc2)C1 [Venetoclax] + COc1cc(Nc2ncc3c(n2)-c2ccc(Cl)cc2C(c2c(F)cccc2OC)=NC3)ccc1C(=O)O [Alisertib] (first compound max 1 µM, 7x7, partner max 10 µM)" data_value=-0.0124
molecule="CN(CCO)CC[C@H](CSc1ccccc1)Nc1ccc(S(=O)(=O)NC(=O)c2ccc(N3CCC([C@@H](O)c4ccccc4-c4ccc(Cl)cc4)CC3)cc2)cc1S(=O)(=O)C(F)(F)F [AZD4320] + CS(=O)(=O)CCNCc1ccc(-c2ccc3ncnc(Nc4ccc(OCc5cccc(F)c5)c(Cl)c4)c3c2)o1 [Lapatinib] (first compound max 1 µM, 7x7, partner max 10 µM)" data_value=-0.0113
molecule="COc1nnc2ccc(N3CCC(c4ccc(OCCN5CCN(C)C(=O)[C@H]5C)cc4)CC3)nn12 [AZD5153] + Cn1cnc2c(F)c(Nc3ccc(Br)cc3Cl)c(C(=O)NOCCO)cc21 [Selumetinib] (first compound max 1 µM, 7x7, partner max 10 µM)" data_value=-0.0184

###

Test system: DOK (Oral Cavity Carcinoma)
Assay: Bliss excess, mean over the matrix (fraction); higher = more synergy
property.measured: Bliss excess

compound="C[C@@H](c1ccc2nccn2c1)n1nnc2ncc(-c3cnn(C)c3)nc21 [Savolitinib] + Cc1c2c(nn1C)CSCc1cc(n(C)n1)CSc1cc(c3ccccc3c1)OCCCc1c(C(=O)O)n(C)c3c-2c(Cl)ccc13 [AZD5991] (first compound max 1 µM, 7x7, partner max 1 µM)" property_measured="Bliss excess" data_value=-0.0681
compound="COc1nnc2ccc(N3CCC(c4ccc(OCCN5CCN(C)C(=O)[C@H]5C)cc4)CC3)nn12 [AZD5153] + Cn1cnc2c(F)c(Nc3ccc(Br)cc3Cl)c(C(=O)NOCCO)cc21 [Selumetinib] (first compound max 1 µM, 7x7, partner max 10 µM)" property_measured="Bliss excess" data_value=-0.0297
compound="Cc1cc2ncnn2cc1Nc1ncc2c(n1)n(C1CCOCC1)c(=O)n2C [AZD7648] + CCN(CCO)CCCOc1ccc2c(Nc3cc(CC(=O)Nc4cccc(F)c4)[nH]n3)ncnc2c1 [AZD2811] (first compound max 10 µM, 7x7, partner max 1 µM)" property_measured="Bliss excess" data_value=0.0123
compound="COc1cc2ncnc(Nc3ccc(F)c(Cl)c3)c2cc1OCCCN1CCOCC1 [Gefitinib] + CC(C)n1c(=O)n(C)c2cnc3cc(F)c(-c4ccc(OCCCN5CCCCC5)nc4)cc3c21 [AZD1390] (first compound max 10 µM, 7x7, partner max 0.3 µM)" property_measured="Bliss excess" data_value=-0.0341

###

Tested on: CS1 (Chondrosarcoma)
Assay: combination Emax (second highest fraction inhibited in the dose matrix, 72 h); higher = more inhibition; extreme values may be limits of the assay
property.measured: combination Emax

compound="CC1(C)CCC(CN2CCN(c3ccc(C(=O)NS(=O)(=O)c4ccc(NCC5CCOCC5)c([N+](=O)[O-])c4)c(Oc4cnc5[nH]ccc5c4)c3)CC2)=C(c2ccc(Cl)cc2)C1 [Venetoclax] + CS(=O)(=O)CCNCc1ccc(-c2ccc3ncnc(Nc4ccc(OCc5cccc(F)c5)c(Cl)c4)c3c2)o1 [Lapatinib] (first compound max 1 µM, 7x7, partner max 10 µM)" data_value=0.411
compound="COc1nnc2ccc(N3CCC(c4ccc(OCCN5CCN(C)C(=O)[C@H]5C)cc4)CC3)nn12 [AZD5153] + C[C@@H]1COCCN1C2=NC(=NC(=C2)C3(CC3)[S@](=N)(=O)C)C4=C5C=CNC5=NC=C4 [AZD6738] (first compound max 1 µM, 7x7, partner max 10 µM)" data_value=0.661
compound="NC1(C(=O)N[C@@H](CCO)c2ccc(Cl)cc2)CCN(c2ncnc3[nH]ccc23)CC1 [Capivasertib] + COc1nnc2ccc(N3CCC(c4ccc(OCCN5CCN(C)C(=O)[C@H]5C)cc4)CC3)nn12 [AZD5153] (first compound max 10 µM, 7x7, partner max 1 µM)" data_value=0.455
compound="N#Cc1cnc(Nc2cc(NC[C@H]3CNCCO3)c(C(F)(F)F)cn2)cn1 [SRA737] + O=c1[nH]cc(F)c(=O)[nH]1 [5-Fluorouracil] (first compound max 10 µM, 7x7, partner max 20 µM)" data_value=0.405
compound="CC(=O)Nc1cccc(-n2c(=O)n(C3CC3)c(=O)c3c(Nc4ccc(I)cc4F)n(C)c(=O)c(C)c32)c1 [Trametinib] + Cc1nc(-c2cn3c(n2)-c2ccc(-c4cnn(C(C)(C)C(N)=O)c4)cc2OCC3)n(C(C)C)n1 [Taselisib] (first compound max 1 µM, 7x7, partner max 10 µM)" data_value=0.878
compound="CN(CCO)CC[C@H](CSc1ccccc1)Nc1ccc(S(=O)(=O)NC(=O)c2ccc(N3CCC([C@@H](O)c4ccccc4-c4ccc(Cl)cc4)CC3)cc2)cc1S(=O)(=O)C(F)(F)F [AZD4320] + CCN(CCO)CCCOc1ccc2c(Nc3cc(CC(=O)Nc4cccc(F)c4)[nH]n3)ncnc2c1 [AZD2811] (first compound max 1 µM, 7x7, partner max 1 µM)" data_value=0.683
compound="O=C(c1cc(Cc2n[nH]c(=O)c3ccccc23)ccc1F)N1CCN(C(=O)C2CC2)CC1 [Olaparib] + CC1(C)CCC(CN2CCN(c3ccc(C(=O)NS(=O)(=O)c4ccc(NCC5CCOCC5)c([N+](=O)[O-])c4)c(Oc4cnc5[nH]ccc5c4)c3)CC2)=C(c2ccc(Cl)cc2)C1 [Venetoclax] (first compound max 10 µM, 7x7, partner max 1 µM)" data_value=0.15
compound="CS(=O)(=O)CCNCc1ccc(-c2ccc3ncnc(Nc4ccc(OCc5cccc(F)c5)c(Cl)c4)c3c2)o1 [Lapatinib] + NC1(c2ccc(-c3nc4ccn5c(=O)[nH]nc5c4cc3-c3ccccc3)cc2)CCC1 [MK-2206] (first compound max 10 µM, 7x7, partner max 10 µM)" data_value=0.765
compound="Cn1cnc2c(F)c(Nc3ccc(Br)cc3Cl)c(C(=O)NOCCO)cc21 [Selumetinib] + C=CCn1c(=O)c2cnc(Nc3ccc(N4CCN(C)CC4)cc3)nc2n1-c1cccc(C(C)(C)O)n1 [AZD1775] (first compound max 10 µM, partner max 1 µM)" data_value=0.386
